Would you mind telling me the reported minimum viability across doses of each entry?
Tested on: A498
PROCEDURE TEXT: minimum viability across doses, drug alone, relative to DMSO (fraction); higher = less growth inhibition
TEST SETTINGS: treatment: drug alone; 5 days
Please give only the number in your answer, with no unit.

Reported A498 minimum viability across doses for item Cc1ccc(NC(=O)c2cccc(N(C)C)c2)cc1NC(=O)c1ccc(O)cc1 was 0.864

Reported A498 minimum viability across doses for item CS(=O)(=O)CCNCc1ccc(-c2ccc3ncnc(Nc4ccc(OCc5cccc(F)c5)c(Cl)c4)c3c2)o1.Cc1ccc(S(=O)(=O)O)cc1.Cc1ccc(S(=O)(=O)O)cc1 [Lapatinib Ditosylate (Tykerb)] was 0.929

Reported A498 minimum viability across doses for item CC(C)(C)c1cnc(CSc2cnc(NC(=O)C3CCNCC3)s2)o1 was 0.00845

Reported A498 minimum viability across doses for item Cc1cc(C(=O)NOCCO)c(Nc2ccc(I)cc2F)n(C)c1=O was 0.789

Reported A498 minimum viability across doses for item C=CC(=O)Nc1cc2c(Nc3ccc(F)c(Cl)c3)ncnc2cc1OCCCN1CCOCC1 was 0.141

Reported A498 minimum viability across doses for item COc1ccc(S(=O)(=O)N(C(C)=O)c2ccccc2/C=C/c2cc[n+]([O-])cc2)cc1 was 0.119

Reported A498 minimum viability across doses for item Cc1ccc(NC(=O)c2ccc(CN3CCN(C)CC3)cc2)cc1Nc1nccc(-c2cccnc2)n1 was 0.919

* * *

Test system: SN12C
PROCEDURE TEXT: GI50, drug alone; higher = less potent
TEST SETTINGS: treatment: drug alone; 5 days
Would you mind telling me the reported GI50, drug alone of each entry?
Numbers only; they are read as µM.

Sure, the documented GI50, drug alone for CNC(=O)c1nn(C)c2c1C(C)(C)Cc1cnc(Nc3ccc(N4CCN(C)CC4)cc3)nc1-2 is 0.957

Sure, the documented GI50, drug alone for COc1cc2nccc(Oc3ccc(NC(=O)Nc4cc(C)on4)c(Cl)c3)c2cc1OC is 9.39

Sure, the documented GI50, drug alone for CC(O)C(=O)O.CC(O)C(=O)O.CN1CCN(c2ccc3nc(-c4c(N)c5c(F)cccc5[nH]c4=O)[nH]c3c2)CC1 is 1.16

Sure, the documented GI50, drug alone for O=C(NOC[C@H](O)CO)c1ccc(F)c(F)c1Nc1ccc(I)cc1F is 2.34

Sure, the documented GI50, drug alone for O=C1NC(=O)[C@@H](c2cn3c4c(cccc24)CCC3)[C@@H]1c1c[nH]c2ccccc12 [ARQ 197 (Tivantinib)] is 2.17

Sure, the documented GI50, drug alone for C=CC(=O)Nc1cc2c(Nc3ccc(F)c(Cl)c3)ncnc2cc1OCCCN1CCOCC1 is 5.22

Sure, the documented GI50, drug alone for O=C(O)c1ccc(Nc2ncc3c(n2)-c2ccc(Cl)cc2C(c2c(F)cccc2F)=NC3)cc1 is 6.21

Sure, the documented GI50, drug alone for O=C1NC(=O)/C(=C/c2ccc3nccc(-c4ccncc4)c3c2)S1 is 1.16

Sure, the documented GI50, drug alone for O=C(NCCCNc1nc(Nc2cccc(NC(=O)N3CCCC3)c2)ncc1I)c1cccs1 is 7.51

* * *

Would you mind telling me the reported minimum viability across doses of each entry?
Tested on: SN12C
PROCEDURE TEXT: minimum viability across doses, drug + dasatinib, relative to DMSO (fraction); higher = less growth inhibition
TEST SETTINGS: treatment: drug + dasatinib (fixed dose, not stated); 5 days
Please give only the number in your answer, with no unit.

Sure, the documented minimum viability across doses for CC[C@H](Nc1ncnc2[nH]cnc12)c1nc2cccc(F)c2c(=O)n1-c1ccccc1 [CAL-101 (GS-1101)] + Cc1nc(Nc2ncc(C(=O)Nc3c(C)cccc3Cl)s2)cc(N2CCN(CCO)CC2)n1 is 0.546

Sure, the documented minimum viability across doses for O=C1NC(=O)[C@@H](c2cn3c4c(cccc24)CCC3)[C@@H]1c1c[nH]c2ccccc12 [ARQ 197 (Tivantinib)] + Cc1nc(Nc2ncc(C(=O)Nc3c(C)cccc3Cl)s2)cc(N2CCN(CCO)CC2)n1 is 0.181

Sure, the documented minimum viability across doses for O=C(NOCC(O)CO)c1cc(Br)c(F)c(F)c1Nc1ccc(I)cc1F (configuration not stated) + Cc1nc(Nc2ncc(C(=O)Nc3c(C)cccc3Cl)s2)cc(N2CCN(CCO)CC2)n1 is 0.357

Sure, the documented minimum viability across doses for CN1CCN(C2CCN(C(=O)Nc3cc(Oc4ccc(NC(=O)C5(C(=O)Nc6ccc(F)cc6)CC5)c(F)c4)ccn3)CC2)CC1 [Golvatinib (E7050)] + Cc1nc(Nc2ncc(C(=O)Nc3c(C)cccc3Cl)s2)cc(N2CCN(CCO)CC2)n1 is 0.191

Sure, the documented minimum viability across doses for Cc1cc(Nc2nc(N[C@@H](C)c3ccc(F)cc3)c(C#N)cc2F)n[nH]1 [AZ 960] + Cc1nc(Nc2ncc(C(=O)Nc3c(C)cccc3Cl)s2)cc(N2CCN(CCO)CC2)n1 is 0.127

Sure, the documented minimum viability across doses for CN1CCN(c2cccc(Nc3nc4c(-c5ccc(S(C)(=O)=O)cc5)cccn4n3)c2)CC1 + Cc1nc(Nc2ncc(C(=O)Nc3c(C)cccc3Cl)s2)cc(N2CCN(CCO)CC2)n1 is 0.246

Sure, the documented minimum viability across doses for Cc1[nH]c(/C=C2\C(=O)Nc3ccccc32)c(C)c1CCC(=O)O [TSU-68] + Cc1nc(Nc2ncc(C(=O)Nc3c(C)cccc3Cl)s2)cc(N2CCN(CCO)CC2)n1 is 0.609

Sure, the documented minimum viability across doses for O=C1CCC(N2C(=O)c3ccccc3C2=O)C(=O)N1 (configuration not stated) [Thalidomide] + Cc1nc(Nc2ncc(C(=O)Nc3c(C)cccc3Cl)s2)cc(N2CCN(CCO)CC2)n1 is 0.679

Sure, the documented minimum viability across doses for COc1ccc2c(c1OC)N=C(NC(=O)c1cccnc1)N1CCN=C21 [PIK-90] + Cc1nc(Nc2ncc(C(=O)Nc3c(C)cccc3Cl)s2)cc(N2CCN(CCO)CC2)n1 is 0.52

Sure, the documented minimum viability across doses for COc1cc2ncnc(Nc3cccc(Cl)c3)c2cc1OC [AG-1478 (Tyrphostin AG-1478)] + Cc1nc(Nc2ncc(C(=O)Nc3c(C)cccc3Cl)s2)cc(N2CCN(CCO)CC2)n1 is 0.646

Sure, the documented minimum viability across doses for CS(=O)(=O)CCNCc1ccc(-c2ccc3ncnc(Nc4ccc(OCc5cccc(F)c5)c(Cl)c4)c3c2)o1.Cc1ccc(S(=O)(=O)O)cc1.Cc1ccc(S(=O)(=O)O)cc1 [Lapatinib Ditosylate (Tykerb)] + Cc1nc(Nc2ncc(C(=O)Nc3c(C)cccc3Cl)s2)cc(N2CCN(CCO)CC2)n1 is 0.606

Sure, the documented minimum viability across doses for CNC(=O)c1nn(C)c2c1C(C)(C)Cc1cnc(Nc3ccc(N4CCN(C)CC4)cc3)nc1-2 + Cc1nc(Nc2ncc(C(=O)Nc3c(C)cccc3Cl)s2)cc(N2CCN(CCO)CC2)n1 is 0.0108

Sure, the documented minimum viability across doses for CCN1CCN(Cc2ccc(-c3cc4c(N[C@H](C)c5ccccc5)ncnc4[nH]3)cc2)CC1 [AEE788 (NVP-AEE788)] + Cc1nc(Nc2ncc(C(=O)Nc3c(C)cccc3Cl)s2)cc(N2CCN(CCO)CC2)n1 is 0.218

Sure, the documented minimum viability across doses for CCOc1cc2ncc(C#N)c(Nc3ccc(OCc4ccccn4)c(Cl)c3)c2cc1NC(=O)/C=C/CN(C)C [Neratinib (HKI-272)] + Cc1nc(Nc2ncc(C(=O)Nc3c(C)cccc3Cl)s2)cc(N2CCN(CCO)CC2)n1 is 0.0625

Sure, the documented minimum viability across doses for Cc1cc(Nc2cc(N3CCN(C)CC3)nc(/C=C/c3ccccc3)n2)n[nH]1.O=C(O)[C@H](O)[C@@H](O)C(=O)O [ENMD-2076] + Cc1nc(Nc2ncc(C(=O)Nc3c(C)cccc3Cl)s2)cc(N2CCN(CCO)CC2)n1 is 0.0567

Sure, the documented minimum viability across doses for CNC(=O)c1ccccc1Sc1ccc2c(/C=C/c3ccccn3)n[nH]c2c1 [Axitinib] + Cc1nc(Nc2ncc(C(=O)Nc3c(C)cccc3Cl)s2)cc(N2CCN(CCO)CC2)n1 is 0.262

Sure, the documented minimum viability across doses for CC1(C)CCC(CN2CCN(c3ccc(C(=O)NS(=O)(=O)c4ccc(NCC5CCOCC5)c([N+](=O)[O-])c4)c(Oc4cnc5[nH]ccc5c4)c3)CC2)=C(c2ccc(Cl)cc2)C1 [ABT-199 (GDC-0199 )] + Cc1nc(Nc2ncc(C(=O)Nc3c(C)cccc3Cl)s2)cc(N2CCN(CCO)CC2)n1 is 0.68
